Test system: MDA-MB-134-VI (FGFR+)
Run description: MTT cytotoxicity assay
Test settings: read-out: Cytotoxic activity expressed as IC50; Table 6; MDA-MB-134-VI (FGFR+); 48 h, 37° C.
Quantity name: IC50 (µM)
Answer in µM, number only, no unit symbol.

Need IC50 of NNC(=O)C1=C[CH]([Ru-]2([PH](c3ccccc3)(c3ccccc3)c3ccccc3)[n+]3ccccc3-c3cccc[n+]32)C=C1.O=S(=O)([O-])C(F)(F)F (stereo not shown) , thanks.
7.1

---

Run description: Stability in organic medium (dimethyl sulfoxide) by UV-Vis spectroscopy
Assay type: physicochemical
Test settings: time 2 h, band 357-425 nm (λmax in column head)
Quantity name: Relative variation of the maximum absorbance of the charge transfer bands (%)
State just the number; it will be interpreted in %.

The examples below pair each entry with its known result.
[[record]]
molecule = "CCC(=O)C1=C[CH]([Ru-]2([PH](c3ccccc3)(c3ccccc3)c3ccccc3)[n+]3ccccc3-c3cccc[n+]32)C=C1.O=S(=O)([O-])C(F)(F)F (centres unmarked)"
recorded_value = 0.2

[[record]]
molecule = "COc1cc[n+]2c(c1)-c1cc(O)cc[n+]1[Ru-]2([CH]1C=CC=C1)[PH](c1ccccc1)(c1ccccc1)c1ccccc1.O=S(=O)([O-])C(F)(F)F (centres unmarked)"
recorded_value = 1.5

[[record]]
molecule = "CCOC(=O)Oc1cc[n+]2c(c1)-c1cc(OC)cc[n+]1[Ru-]2([CH]1C=CC=C1)[PH](c1ccccc1)(c1ccccc1)c1ccccc1.O=S(=O)([O-])C(F)(F)F (centres unmarked)"
recorded_value = 0.1


Given O=C(Cc1ccccc1)C1=C[CH]([Ru-]2([PH](c3ccccc3)(c3ccccc3)c3ccccc3)[n+]3ccccc3-c3cccc[n+]32)C=C1.O=S(=O)([O-])C(F)(F)F (centres unmarked) , state its recorded Relative variation of the maximum absorbance of the charge transfer bands.
0.6

# get_value(readout='Relative variation of the maximum absorbance of the charge transfer bands', item= CC(=O)C1=C[CH]([Ru-]2([PH](c3ccccc3)(c3ccccc3)c3ccccc3)[n+]3cccc4ccc5ccc[n+]2c5c43)C=C1.O=S(=O)([O-])C(F)(F)F (centres unmarked) )
2.6

---

Run description: Stability in organic medium (dimethyl sulfoxide) by UV-Vis spectroscopy
Type: physicochemical
Test settings: time 1 h, band 357-425 nm (λmax in column head)
Experimental: The stability of the complexes 4-11 in organic and aqueous media was evaluated over 24 h by UV-Vis spectroscopy at room temperature, in dark, on a Jasco V-660 spectrometer using quartz cuvettes (1 cm optical path length). […]
Quantity name: Relative variation of the maximum absorbance of the charge transfer bands (%)
Field format: number, assumed %, no unit text.

[[record]]
compound = "CC(=O)C1=C[CH]([Ru-]2([PH](c3ccccc3)(c3ccccc3)c3ccccc3)[n+]3ccccc3-c3cccc[n+]32)C=C1.O=S(=O)([O-])C(F)(F)F (centres unmarked)"
recorded_value = 0.1


API: the following record is the query input.
Look up Relative variation of the maximum absorbance of the charge transfer bands: O=C(Cc1ccccc1)C1=C[CH]([Ru-]2([PH](c3ccccc3)(c3ccccc3)c3ccccc3)[n+]3ccccc3-c3cccc[n+]32)C=C1.O=S(=O)([O-])C(F)(F)F (centres unmarked)
0.3

---

Run description: Stability in aqueous medium (dimethyl sulfoxide/Dulbecco's Modified Eagle Medium) by UV-Vis spectroscopy
Assay type: physicochemical
Test settings: 5% dimethyl sulfoxide/95% Dulbecco's Modified Eagle Medium; time 1 h; band 292-296 nm (λmax in column head)
Quantity name: Relative variation of the maximum absorbance of the π→π* transitions (%)
Provide the reading as a plain figure in %.

[[record]]
compound = "CCOC(=O)Oc1cc[n+]2c(c1)-c1cc(OC)cc[n+]1[Ru-]2([CH]1C=CC=C1)[PH](c1ccccc1)(c1ccccc1)c1ccccc1.O=S(=O)([O-])C(F)(F)F (stereo not drawn)"
recorded_value = "−0.2"


Please look up its Relative variation of the maximum absorbance of the π→π* transitions: CC(=O)C1=C[CH]([Ru-]2([PH](c3ccccc3)(c3ccccc3)c3ccccc3)[n+]3ccccc3-c3cccc[n+]32)C=C1.O=S(=O)([O-])C(F)(F)F (stereo not drawn)
0.0

Query (compound): NNC(=O)C1=C[CH]([Ru-]2([PH](c3ccccc3)(c3ccccc3)c3ccccc3)[n+]3ccccc3-c3cccc[n+]32)C=C1.O=S(=O)([O-])C(F)(F)F (stereo not drawn) ; field requested: Relative variation of the maximum absorbance of the π→π* transitions
−0.3

# lookup: Relative variation of the maximum absorbance of the π→π* transitions of CCC(=O)C1=C[CH]([Ru-]2([PH](c3ccccc3)(c3ccccc3)c3ccccc3)[n+]3ccccc3-c3cccc[n+]32)C=C1.O=S(=O)([O-])C(F)(F)F (stereo not drawn)
−0.1

What Relative variation of the maximum absorbance of the π→π* transitions value was documented for this compound, COc1cc[n+]2c(c1)-c1cc(O)cc[n+]1[Ru-]2([CH]1C=CC=C1)[PH](c1ccccc1)(c1ccccc1)c1ccccc1.O=S(=O)([O-])C(F)(F)F (stereo not drawn) ?
−2.2

Item O=C(Cc1ccccc1)C1=C[CH]([Ru-]2([PH](c3ccccc3)(c3ccccc3)c3ccccc3)[n+]3ccccc3-c3cccc[n+]32)C=C1.O=S(=O)([O-])C(F)(F)F (stereo not drawn) has what recorded Relative variation of the maximum absorbance of the π→π* transitions?
−0.3

---

Run description: Stability in aqueous medium (dimethyl sulfoxide/Dulbecco's Modified Eagle Medium) by UV-Vis spectroscopy
Format: physicochemical
Test settings: 5% dimethyl sulfoxide/95% Dulbecco's Modified Eagle Medium; time 0.25 h; band 292-296 nm (λmax in column head)
Quantity name: Relative variation of the maximum absorbance of the π→π* transitions

# count of solved cases: 2
[[record]]
compound = "CCC(=O)C1=C[CH]([Ru-]2([PH](c3ccccc3)(c3ccccc3)c3ccccc3)[n+]3ccccc3-c3cccc[n+]32)C=C1.O=S(=O)([O-])C(F)(F)F (stereo not drawn)"
recorded_value = "−0.1%"

[[record]]
compound = "NNC(=O)C1=C[CH]([Ru-]2([PH](c3ccccc3)(c3ccccc3)c3ccccc3)[n+]3ccccc3-c3cccc[n+]32)C=C1.O=S(=O)([O-])C(F)(F)F (stereo not drawn)"
recorded_value = "0.1%"


Proceeding to the next compound to report its Relative variation of the maximum absorbance of the π→π* transitions.
Need Relative variation of the maximum absorbance of the π→π* transitions of O=C(Cc1ccccc1)C1=C[CH]([Ru-]2([PH](c3ccccc3)(c3ccccc3)c3ccccc3)[n+]3ccccc3-c3cccc[n+]32)C=C1.O=S(=O)([O-])C(F)(F)F (stereo not drawn) , thanks.
−0.2%

---

Run description: Stability in organic medium (dimethyl sulfoxide) by UV-Vis spectroscopy
Type: physicochemical
Test settings: time 0.75 h, band 357-425 nm (λmax in column head)
Quantity name: Relative variation of the maximum absorbance of the charge transfer bands (%)
Please reply with the bare figure in % and do not write the unit itself.

[[record]]
molecule = "CCC(=O)C1=C[CH]([Ru-]2([PH](c3ccccc3)(c3ccccc3)c3ccccc3)[n+]3ccccc3-c3cccc[n+]32)C=C1.O=S(=O)([O-])C(F)(F)F (stereo not drawn)"
scale_unit = "%"
recorded_value = 0.0


Fill blank: measured Relative variation of the maximum absorbance of the charge transfer bands of the molecule COc1cc[n+]2c(c1)-c1cc(O)cc[n+]1[Ru-]2([CH]1C=CC=C1)[PH](c1ccccc1)(c1ccccc1)c1ccccc1.O=S(=O)([O-])C(F)(F)F (stereo not drawn) is ____.
−0.3

// query Relative variation of the maximum absorbance of the charge transfer bands value for entry CC(=O)C1=C[CH]([Ru-]2([PH](c3ccccc3)(c3ccccc3)c3ccccc3)[n+]3cccc4c5nccnc5c5ccc[n+]2c5c43)C=C1.O=S(=O)([O-])C(F)(F)F (stereo not drawn)
−0.1

---

Each entry below carries its recorded Relative variation of the maximum absorbance of the charge transfer bands.
Run description: Stability in aqueous medium (dimethyl sulfoxide/Dulbecco's Modified Eagle Medium) by UV-Vis spectroscopy
Assay type: physicochemical
Test settings: 5% dimethyl sulfoxide/95% Dulbecco's Modified Eagle Medium; time 6 h; band 358-400 nm (λmax in column head)
Your answer is read as %, so omit the unit and give the number.

[[record]]
molecule = "COc1cc[n+]2c(c1)-c1cc(O)cc[n+]1[Ru-]2([CH]1C=CC=C1)[PH](c1ccccc1)(c1ccccc1)c1ccccc1.O=S(=O)([O-])C(F)(F)F (stereo not drawn) [compound 10]"
scale_unit = "%"
recorded_value = "−4.8"

[[record]]
molecule = "CCC(=O)C1=C[CH]([Ru-]2([PH](c3ccccc3)(c3ccccc3)c3ccccc3)[n+]3ccccc3-c3cccc[n+]32)C=C1.O=S(=O)([O-])C(F)(F)F (stereo not drawn) [compound 8]"
scale_unit = "%"
recorded_value = "−0.5"

[[record]]
molecule = "CCOC(=O)Oc1cc[n+]2c(c1)-c1cc(OC)cc[n+]1[Ru-]2([CH]1C=CC=C1)[PH](c1ccccc1)(c1ccccc1)c1ccccc1.O=S(=O)([O-])C(F)(F)F (stereo not drawn) [compound 11]"
scale_unit = "%"
recorded_value = 0.2

[[record]]
molecule = "O=C(Cc1ccccc1)C1=C[CH]([Ru-]2([PH](c3ccccc3)(c3ccccc3)c3ccccc3)[n+]3ccccc3-c3cccc[n+]32)C=C1.O=S(=O)([O-])C(F)(F)F (stereo not drawn) [compound 9]"
scale_unit = "%"
recorded_value = "−1.7"


What does the data say about its Relative variation of the maximum absorbance of the charge transfer bands? Entry: NNC(=O)C1=C[CH]([Ru-]2([PH](c3ccccc3)(c3ccccc3)c3ccccc3)[n+]3ccccc3-c3cccc[n+]32)C=C1.O=S(=O)([O-])C(F)(F)F (stereo not drawn) [compound 4]
−2.3

Entry under review: CC(=O)C1=C[CH]([Ru-]2([PH](c3ccccc3)(c3ccccc3)c3ccccc3)[n+]3ccccc3-c3cccc[n+]32)C=C1.O=S(=O)([O-])C(F)(F)F (stereo not drawn) [compound 5] . Reported Relative variation of the maximum absorbance of the charge transfer bands?
0.3
